system: normal primary NK cells, pool 2 (3 donors) (IL-2 2.5 ng/mL); assay: percent inhibition of viability; higher = more inhibition; conditions: 72 h; 10000 nM;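 note: normalised to DMSO-only wells as negative and benzethonium chloride as positive control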
Each item that follows carries a reported percent inhibition of viability.

MOLECULE: CN(c1ncccc1CNc1nc(Nc2ccc3c(c2)CC(=O)N3)ncc1C(F)(F)F)S(C)(=O)=O (max concentration tested 10000 nM)
percent inhibition of viability / %: 94.8
--
MOLECULE: C#Cc1cccc(Nc2ncnc3cc4c(cc23)OCCOCCOCCO4)c1 [Icotinib] (max concentration tested 10000 nM)
percent inhibition of viability / %: 18.9
--
MOLECULE: CC(=O)c1c(C)c2cnc(Nc3ccc(N4CCNCC4)cn3)nc2n(C2CCCC2)c1=O [Palbociclib] (max concentration tested 10000 nM)
percent inhibition of viability / %: 66.1
--
MOLECULE: OC[C@H]1O[C@@H](n2cnc3c2N=CNC[C@H]3O)C[C@@H]1O [Pentostatin] (max concentration tested 10000 nM)
percent inhibition of viability / %: 1.05
--
MOLECULE: Cn1cc(C2=Nc3cc(NC(=O)C(N)C4CCCCC4)cc4c3C2=CNNC4=O)cn1 (stereo not given) (max concentration tested 10000 nM)
percent inhibition of viability / %: 85.8
--
MOLECULE: CC(=O)NCC(=O)N1[C@@H]2CC[C@H]1c1ccc(Nc3ncc(C(F)(F)F)c(NC4CCC4)n3)cc12 (max concentration tested 10000 nM)
percent inhibition of viability / %: 96.5
--
MOLECULE: Cc1cc(C(=O)NOCCO)c(Nc2ccc(I)cc2F)n(C)c1=O [AZD-8330] (max concentration tested 10000 nM)
percent inhibition of viability / %: 6.61
--
MOLECULE: CN(C)C(=O)c1cc2cnc(Nc3ccc(N4CCNCC4)cn3)nc2n1C1CCCC1 [Ribociclib] (max concentration tested 10000 nM)
percent inhibition of viability / %: 48.2
--
MOLECULE: COc1cc2ncnc(Nc3ccc(F)c(Cl)c3)c2cc1OCCCN1CCOCC1 [Gefitinib] (max concentration tested 10000 nM)
percent inhibition of viability / %: 39.1
--
MOLECULE: O=C(O)CC1CC(c2ccccc2)=NO1 (stereo not given) [VGX-1027] (max concentration tested 10000 nM)
percent inhibition of viability / %: 7.46
--
MOLECULE: CCc1c2c(nc3ccc(OC(=O)N4CCC(N5CCCCC5)CC4)cc13)-c1cc3c(c(=O)n1C2)COC(=O)[C@]3(O)CC [Irinotecan] (max concentration tested 10000 nM)
percent inhibition of viability / %: 20.8
--
MOLECULE: O=C(O)C(=O)O.[NH-][C@@H]1CCCC[C@H]1[NH-].[Pt+2] [Oxaliplatin] (max concentration tested 100000 nM)
percent inhibition of viability / %: 44.2
--
MOLECULE: COc1cc(Nc2ncc(F)c(Nc3ccc4c(n3)NC(=O)C(C)(C)O4)n2)cc(OC)c1OC [Tamatinib] (max concentration tested 10000 nM)
percent inhibition of viability / %: 49.9
--
MOLECULE: Cc1cc(C(C)Nc2ccccc2)c2nc(N3CCOCC3)cc(=O)n2c1 (stereo not given) [TGX-221] (max concentration tested 10000 nM)
percent inhibition of viability / %: 29.4
--
MOLECULE: COc1cc2c(cc1O)CC[C@@H]1[C@@H]2CC[C@]2(C)[C@@H](O)CC[C@@H]12 [2-methoxyestradiol] (max concentration tested 10000 nM)
percent inhibition of viability / %: 16.3
